target: plasmin (Homo sapiens, UniProt P00747); assay: Plasmin assay (S-2251 substrate); assay type: biochemical; parameters: 50 μL 25 nM human plasmin; conditions: [IC50 for Trypsin/IC50 for other enzyme]×100; lower = more trypsin selective
Sequence (P00747 581-810 limits assumed): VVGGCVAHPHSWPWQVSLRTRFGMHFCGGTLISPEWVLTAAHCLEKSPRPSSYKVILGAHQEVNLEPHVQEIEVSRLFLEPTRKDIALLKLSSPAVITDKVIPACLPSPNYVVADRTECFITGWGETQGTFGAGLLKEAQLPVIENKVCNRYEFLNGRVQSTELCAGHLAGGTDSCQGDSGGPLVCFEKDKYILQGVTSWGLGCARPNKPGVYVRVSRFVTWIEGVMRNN
Sequence (P00747 97-580 partner limits assumed): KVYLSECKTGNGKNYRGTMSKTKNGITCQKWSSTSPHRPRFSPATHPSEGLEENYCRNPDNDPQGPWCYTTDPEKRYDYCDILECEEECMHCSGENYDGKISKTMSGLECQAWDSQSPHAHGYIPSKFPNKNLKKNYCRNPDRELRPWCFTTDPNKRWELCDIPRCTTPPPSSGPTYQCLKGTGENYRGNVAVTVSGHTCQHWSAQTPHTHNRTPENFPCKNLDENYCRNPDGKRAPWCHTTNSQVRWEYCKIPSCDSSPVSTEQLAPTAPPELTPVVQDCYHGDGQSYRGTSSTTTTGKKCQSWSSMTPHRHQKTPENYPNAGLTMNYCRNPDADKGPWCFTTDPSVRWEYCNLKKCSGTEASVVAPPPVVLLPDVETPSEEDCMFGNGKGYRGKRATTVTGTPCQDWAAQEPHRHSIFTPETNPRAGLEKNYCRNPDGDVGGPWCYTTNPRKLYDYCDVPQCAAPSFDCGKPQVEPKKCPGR
Non-standard residues stand in square brackets, D forms with d. Residues, ends and D or L forms follow the SMILES beside them. *: point of attachment. Boc = CC(C)(C)OC(=O)*
Calculated % Selectivity Plasmin overview
API: value field is a number in %; no unit string.

CC(C)(C)OC(=O)N[C@H](CC(=O)O)C(=O)N1CCC[C@H]1C(=O)N[C@H](C=O)CCCNC(=N)N [Compound 12] (Boc-[dD]-Pro-Arg-aldehyde) ... 7
CC(C)(C)OC(=O)N[C@@H](CC(=O)O)C(=O)N1CCC[C@H]1C(=O)N[C@H](C=O)CCCNC(=N)N [Compound 9] (Boc-Asp-Pro-Arg-aldehyde) ... 1

Now take the following compound into account.
Lab book: Calculated % Selectivity Plasmin of CC(C)(C)OC(=O)N[C@@H](CCC(=O)O)C(=O)N1CCC[C@H]1C(=O)N[C@H](C=O)CCCNC(=N)N [Compound 8] (Boc-Glu-Pro-Arg-aldehyde) noted as 1

====

Non-standard residues stand in square brackets, D forms with d. Residues, ends and D or L forms follow the SMILES beside them. *: point of attachment. Boc = CC(C)(C)OC(=O)*
Target or system human urokinase (Homo sapiens, UniProt P00749): recorded IC50 listed per item.
API: value field is a number in µM; no unit string.

CC(C)(C)OC(=O)N[C@@H](CCC(=O)O)C(=O)N1CCC[C@H]1C(=O)N[C@H](C=O)CCCNC(=N)N [Compound 8] (Boc-Glu-Pro-Arg-aldehyde) ... 9

Lab book: IC50 of CC(C)(C)OC(=O)N[C@@H](CC(=O)O)C(=O)N1CCC[C@H]1C(=O)N[C@H](C=O)CCCNC(=N)N [Compound 9] (Boc-Asp-Pro-Arg-aldehyde) noted as 25

Lab book: IC50 of N=C(N)NCCC[C@@H](C=O)NC(=O)[C@@H]1CCCN1C(=O)[C@H](CC(=O)O)NC(=O)OC12CC3CC(CC(C3)C1)C2 [Compound 11] noted as 19

Lab book: IC50 of CC(C)(C)OC(=O)N[C@H](CC(=O)O)C(=O)N1CCC[C@H]1C(=O)N[C@H](C=O)CCCNC(=N)N [Compound 12] (Boc-[dD]-Pro-Arg-aldehyde) noted as 17

====

molecular target: human kallekrein (Homo sapiens)
Sequence (P03952 391-638 limits assumed): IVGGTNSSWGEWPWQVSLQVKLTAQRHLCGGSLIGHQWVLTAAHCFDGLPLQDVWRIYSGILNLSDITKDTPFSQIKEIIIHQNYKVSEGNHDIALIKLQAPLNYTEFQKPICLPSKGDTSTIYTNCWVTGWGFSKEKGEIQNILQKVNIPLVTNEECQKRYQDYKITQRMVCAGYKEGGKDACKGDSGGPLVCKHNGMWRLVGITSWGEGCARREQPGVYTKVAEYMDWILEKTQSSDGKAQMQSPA
Sequence (P03952 20-390 partner limits assumed): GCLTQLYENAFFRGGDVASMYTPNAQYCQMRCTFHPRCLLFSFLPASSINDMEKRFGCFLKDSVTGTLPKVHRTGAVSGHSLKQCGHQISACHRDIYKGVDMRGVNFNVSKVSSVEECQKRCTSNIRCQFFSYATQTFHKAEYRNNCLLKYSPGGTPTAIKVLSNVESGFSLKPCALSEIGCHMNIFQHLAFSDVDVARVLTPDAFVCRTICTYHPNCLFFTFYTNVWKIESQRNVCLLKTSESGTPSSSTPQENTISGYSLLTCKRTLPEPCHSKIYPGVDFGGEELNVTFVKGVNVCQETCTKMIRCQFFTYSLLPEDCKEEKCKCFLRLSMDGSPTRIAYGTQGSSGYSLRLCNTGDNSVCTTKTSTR
Residues, ends and D or L forms follow the SMILES beside them. *: point of attachment. Boc = CC(C)(C)OC(=O)*
IC50 overview
API: value field is a number in µM; no unit string.

CC(C)(C)OC(=O)N[C@@H](CC(=O)O)C(=O)N1CCC[C@H]1C(=O)N[C@H](C=O)CCCNC(=N)N [Compound 9] (Boc-Asp-Pro-Arg-aldehyde) ... 17

human kallekrein (Homo sapiens) IC50 of CC(=O)N[C@@H](CC(C)C)C(=O)N[C@@H](CC(C)C)C(=O)N[C@H](C=O)CCCNC(=N)N [Leupeptin, reference compound] is 4

====

biological target: recombinant tissue plasminogen activator (Homo sapiens); experiment: Tissue plasminogen activator assay (S-2288 substrate); conditions: 30 min preincubation, room temperature; tested 0.025-25 μM; Inact. = no inhibition at highest concentration
Sequence (P00750 36-562): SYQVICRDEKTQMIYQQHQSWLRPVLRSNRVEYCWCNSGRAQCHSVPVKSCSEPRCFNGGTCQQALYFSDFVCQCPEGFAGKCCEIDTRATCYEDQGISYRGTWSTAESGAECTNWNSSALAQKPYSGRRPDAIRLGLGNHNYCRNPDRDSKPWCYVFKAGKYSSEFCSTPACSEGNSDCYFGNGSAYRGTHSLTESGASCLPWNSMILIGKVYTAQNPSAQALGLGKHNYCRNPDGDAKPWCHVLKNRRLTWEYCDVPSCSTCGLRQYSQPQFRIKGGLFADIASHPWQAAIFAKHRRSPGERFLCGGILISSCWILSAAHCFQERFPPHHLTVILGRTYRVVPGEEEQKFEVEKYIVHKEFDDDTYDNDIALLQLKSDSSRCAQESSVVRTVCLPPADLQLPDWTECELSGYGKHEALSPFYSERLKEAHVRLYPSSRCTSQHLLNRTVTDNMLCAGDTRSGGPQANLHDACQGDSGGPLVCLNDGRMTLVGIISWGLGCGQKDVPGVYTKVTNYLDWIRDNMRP
Non-standard residues stand in square brackets, D forms with d. Residues, ends and D or L forms follow the SMILES beside them. *: point of attachment. Boc = CC(C)(C)OC(=O)*
quantity.name: IC50

CC(C)(C)OC(=O)N[C@H](CC(=O)O)C(=O)N1CCC[C@H]1C(=O)N[C@H](C=O)CCCNC(=N)N [Compound 12] (Boc-[dD]-Pro-Arg-aldehyde) ... > 25 µM

Lab book: IC50 of "N=C(N)NCCC[C@@H](C=O)NC(=O)[C@@H]1CCCN1C(=O)[C@H](CC(=O)O)NC(=O)OC12CC3CC(CC(C3)C1)C2" noted as > 25 µM

Lab book: IC50 of CC(C)COC(=O)NC(CC(=O)O)C(=O)N1CCCC1C(=O)NC(C=O)CCCN=C(N)N (stereo not drawn) noted as > 25 µM
